- study target: UniProt:O15245
- protocol summary: Uptake transporter inhibition assay, OCT1 (sumatriptan)
- condition notes: human, Relative Inhibition, 0.04 μM nominal; sumatriptan; IC50 determination, Table 122
- Method: Uptake experiments were performed using HEK293 cells stably expressing the respective uptake transporters. The assays were conducted according to the actual SOLVO uptake transporter assay protocols (PR-ASY-UPT-General Protocol for Uptake Transporter Inhibition Assays). […] After the experiment, cells were washed twice with 100 μL of appropriate cold buffer and lysed with 150 μL scintillation cocktail. Radiolabeled probe substrate transport was determined by liquid scintillation counting. […]
readout name: inhibition at 0.04 μM

Please report inhibition at 0.04 μM for the following molecule: OC1(c2ccc(Cl)cc2)c2ccccc2C2=NCCN21 (stereo not shown) [Compound A, reference compound]
9%

---

- study target: OCT2 (Homo sapiens, UniProt O15244)
- Sequence (O15244 whole entry): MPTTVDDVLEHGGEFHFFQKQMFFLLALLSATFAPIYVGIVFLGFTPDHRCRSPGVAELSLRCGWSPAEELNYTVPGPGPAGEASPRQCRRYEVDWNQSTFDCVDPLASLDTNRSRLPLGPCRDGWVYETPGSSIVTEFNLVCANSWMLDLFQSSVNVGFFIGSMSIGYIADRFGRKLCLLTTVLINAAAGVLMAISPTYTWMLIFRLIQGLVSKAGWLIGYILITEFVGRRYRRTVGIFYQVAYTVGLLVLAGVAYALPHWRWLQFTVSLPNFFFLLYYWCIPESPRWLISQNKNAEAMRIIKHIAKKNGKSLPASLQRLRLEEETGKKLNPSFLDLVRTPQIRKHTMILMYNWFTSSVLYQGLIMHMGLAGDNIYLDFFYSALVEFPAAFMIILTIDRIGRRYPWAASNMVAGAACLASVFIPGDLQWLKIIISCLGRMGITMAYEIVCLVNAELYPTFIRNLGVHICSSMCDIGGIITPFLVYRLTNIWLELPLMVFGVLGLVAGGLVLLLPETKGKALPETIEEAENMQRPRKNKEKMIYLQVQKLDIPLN
- protocol summary: Uptake transporter inhibition assay, OCT2 (metformin)
readout name: pIC50
# pIC50: negative log10 of molar concentration; output just the value

Retrieve pIC50 measured for OC1(c2ccc(Cl)cc2)c2ccccc2C2=NCCN21 (stereo not shown) [Compound A, reference compound] and print it.
5.46

---

- study target: OCT1 (Homo sapiens, UniProt O15245)
- Sequence (O15245 1-554): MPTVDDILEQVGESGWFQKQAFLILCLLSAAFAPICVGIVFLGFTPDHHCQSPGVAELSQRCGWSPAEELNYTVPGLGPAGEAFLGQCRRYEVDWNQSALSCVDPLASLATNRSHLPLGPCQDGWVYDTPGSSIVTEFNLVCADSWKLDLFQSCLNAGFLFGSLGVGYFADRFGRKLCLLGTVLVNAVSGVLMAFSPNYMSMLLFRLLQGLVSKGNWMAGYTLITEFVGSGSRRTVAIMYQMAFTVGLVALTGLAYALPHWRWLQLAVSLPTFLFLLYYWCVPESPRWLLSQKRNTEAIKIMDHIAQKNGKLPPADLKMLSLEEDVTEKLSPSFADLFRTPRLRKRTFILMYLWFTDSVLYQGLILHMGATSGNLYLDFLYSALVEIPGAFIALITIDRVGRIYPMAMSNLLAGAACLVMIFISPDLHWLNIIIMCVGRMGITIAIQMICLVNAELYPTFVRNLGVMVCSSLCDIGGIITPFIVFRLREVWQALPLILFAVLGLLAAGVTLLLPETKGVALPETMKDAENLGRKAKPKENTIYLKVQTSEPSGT
- protocol summary: Uptake transporter inhibition assay, OCT1 (sumatriptan)
- condition notes: human, Relative Inhibition, 1.11 μM nominal; sumatriptan; IC50 determination, Table 122
readout name: inhibition at 1.11 μM (%)
Note: unit % is implicit; provide only the numeric part.

Return reported inhibition at 1.11 μM. Input compound: OC1(c2ccc(Cl)cc2)c2ccccc2C2=NCCN21 (stereo not shown) [Compound A, reference compound]
35

---

- study target: BSEP (Homo sapiens, UniProt O95342)
- Sequence (O95342 whole entry): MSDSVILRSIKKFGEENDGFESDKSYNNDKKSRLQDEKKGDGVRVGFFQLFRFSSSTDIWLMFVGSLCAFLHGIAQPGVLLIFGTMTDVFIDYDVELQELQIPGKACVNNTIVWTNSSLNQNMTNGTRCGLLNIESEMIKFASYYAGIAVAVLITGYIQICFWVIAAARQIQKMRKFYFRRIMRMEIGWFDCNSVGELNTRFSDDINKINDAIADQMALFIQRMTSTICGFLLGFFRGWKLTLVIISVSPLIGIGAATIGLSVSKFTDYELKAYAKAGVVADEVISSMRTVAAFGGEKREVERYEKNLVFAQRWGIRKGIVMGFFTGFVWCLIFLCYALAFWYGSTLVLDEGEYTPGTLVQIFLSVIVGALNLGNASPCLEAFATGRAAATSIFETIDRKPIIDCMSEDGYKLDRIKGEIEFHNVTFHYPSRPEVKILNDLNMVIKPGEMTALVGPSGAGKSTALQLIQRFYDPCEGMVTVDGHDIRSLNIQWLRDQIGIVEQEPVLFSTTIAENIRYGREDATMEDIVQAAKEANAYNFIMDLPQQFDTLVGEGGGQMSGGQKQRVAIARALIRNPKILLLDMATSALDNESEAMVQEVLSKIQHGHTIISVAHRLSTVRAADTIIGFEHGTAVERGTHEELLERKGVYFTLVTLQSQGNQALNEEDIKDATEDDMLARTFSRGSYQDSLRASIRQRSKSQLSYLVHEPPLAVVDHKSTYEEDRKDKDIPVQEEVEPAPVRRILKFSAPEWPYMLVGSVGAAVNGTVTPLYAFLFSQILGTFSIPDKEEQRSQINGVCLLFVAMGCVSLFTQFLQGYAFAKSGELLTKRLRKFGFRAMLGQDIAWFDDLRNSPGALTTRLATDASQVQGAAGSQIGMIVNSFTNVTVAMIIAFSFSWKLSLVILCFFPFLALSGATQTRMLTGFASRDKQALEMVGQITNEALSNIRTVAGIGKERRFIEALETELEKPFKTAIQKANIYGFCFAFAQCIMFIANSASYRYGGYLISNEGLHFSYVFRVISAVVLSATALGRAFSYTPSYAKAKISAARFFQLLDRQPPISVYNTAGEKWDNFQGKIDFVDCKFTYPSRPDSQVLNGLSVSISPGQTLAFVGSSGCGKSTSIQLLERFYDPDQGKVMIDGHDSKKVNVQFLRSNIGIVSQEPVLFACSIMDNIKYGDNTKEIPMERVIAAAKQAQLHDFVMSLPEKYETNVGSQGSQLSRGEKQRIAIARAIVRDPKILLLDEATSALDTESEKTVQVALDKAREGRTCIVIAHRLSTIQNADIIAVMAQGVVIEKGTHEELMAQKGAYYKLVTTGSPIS
- protocol summary: Vesicular transport inhibition assay, BSEP (taurocholate)
- condition notes: follow-up assay, bottom constrained to 0
readout name: pIC50
# pIC50: negative log10 of molar concentration; output just the value

State its pIC50: Clc1ccc(C2(OCC3OCCO3)c3ccccc3C3=NCCN32)cc1 (stereo not shown)
4.34

---

- study target: MATE1 (Homo sapiens, UniProt Q96FL8)
- Sequence (Q96FL8 1-570): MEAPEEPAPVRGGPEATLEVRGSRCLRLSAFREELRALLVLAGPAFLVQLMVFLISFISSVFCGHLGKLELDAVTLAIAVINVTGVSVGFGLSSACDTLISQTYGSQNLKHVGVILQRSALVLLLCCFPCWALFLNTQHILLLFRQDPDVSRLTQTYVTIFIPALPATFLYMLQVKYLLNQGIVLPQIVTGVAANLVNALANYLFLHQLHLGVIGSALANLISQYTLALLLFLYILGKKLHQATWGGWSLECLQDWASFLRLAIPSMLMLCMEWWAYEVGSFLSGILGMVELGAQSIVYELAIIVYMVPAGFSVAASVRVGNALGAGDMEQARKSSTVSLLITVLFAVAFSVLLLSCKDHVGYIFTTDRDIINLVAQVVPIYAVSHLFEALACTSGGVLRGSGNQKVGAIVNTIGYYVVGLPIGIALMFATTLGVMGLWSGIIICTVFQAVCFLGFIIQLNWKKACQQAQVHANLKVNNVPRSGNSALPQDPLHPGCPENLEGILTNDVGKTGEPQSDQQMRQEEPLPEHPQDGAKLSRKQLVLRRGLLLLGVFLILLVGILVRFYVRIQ
- protocol summary: Uptake transporter inhibition assay, MATE1 (metformin)
- condition notes: human, Relative inhibition, 0.12 μM nominal, IC50 determination
readout name: inhibition at 0.12 μM (%)
Record the value in %, omitting the unit from your answer.

Provide one value: measured inhibition at 0.12 μM of OC1(c2ccc(Cl)cc2)c2ccccc2C2=NCCN21 (stereo not shown) [Compound A, reference compound]
7

---

- study target: OAT3 (Homo sapiens, UniProt Q8TCC7)
- Sequence (Q8TCC7 whole entry): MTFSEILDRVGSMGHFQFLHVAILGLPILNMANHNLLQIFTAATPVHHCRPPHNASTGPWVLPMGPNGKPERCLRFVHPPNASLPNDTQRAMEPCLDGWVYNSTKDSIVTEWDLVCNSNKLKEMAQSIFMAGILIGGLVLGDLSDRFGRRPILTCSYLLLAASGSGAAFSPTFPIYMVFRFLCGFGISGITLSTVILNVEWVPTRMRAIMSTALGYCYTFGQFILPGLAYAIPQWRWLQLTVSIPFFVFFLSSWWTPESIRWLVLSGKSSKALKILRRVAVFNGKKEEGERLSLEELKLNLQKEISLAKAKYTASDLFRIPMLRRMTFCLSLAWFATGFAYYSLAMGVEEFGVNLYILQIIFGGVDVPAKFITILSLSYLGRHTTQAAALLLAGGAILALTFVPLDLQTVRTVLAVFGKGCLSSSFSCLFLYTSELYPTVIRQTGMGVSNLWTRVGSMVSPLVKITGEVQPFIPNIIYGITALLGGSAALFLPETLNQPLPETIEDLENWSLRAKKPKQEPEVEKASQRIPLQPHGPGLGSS
- protocol summary: Uptake transporter inhibition assay, OAT3 (estrone-3-sulfate)
- condition notes: human, Relative inhibition, 30.00 μM nominal
readout name: inhibition at 30 μM (%)
Just the number please, in %, no unit attached.

Item OC1(c2ccc(Cl)cc2)c2ccccc2C2=NCCN21 (stereo not shown) [Compound A, reference compound] : provide inhibition at 30 μM
10

---

- study target: OCT1 (Homo sapiens)
- protocol summary: Uptake transporter inhibition assay, OCT1 (sumatriptan)
- condition notes: human, Maximum % inhibition, OCT1, HEK293 cells, sumatriptan (10 μM); NIO: no inhibition observed
readout name: inhibition at 10 µM (%)
Give just the numeric value; % need not be written.

Respond only with inhibition at 10 µM recorded for OC1(c2ccc(Cl)cc2)c2ccccc2C2=NCCN21 (stereo not shown) [Compound A, reference compound]
86

---

- study target: CYP3A4 (Homo sapiens)
- Sequence (P08684 whole entry): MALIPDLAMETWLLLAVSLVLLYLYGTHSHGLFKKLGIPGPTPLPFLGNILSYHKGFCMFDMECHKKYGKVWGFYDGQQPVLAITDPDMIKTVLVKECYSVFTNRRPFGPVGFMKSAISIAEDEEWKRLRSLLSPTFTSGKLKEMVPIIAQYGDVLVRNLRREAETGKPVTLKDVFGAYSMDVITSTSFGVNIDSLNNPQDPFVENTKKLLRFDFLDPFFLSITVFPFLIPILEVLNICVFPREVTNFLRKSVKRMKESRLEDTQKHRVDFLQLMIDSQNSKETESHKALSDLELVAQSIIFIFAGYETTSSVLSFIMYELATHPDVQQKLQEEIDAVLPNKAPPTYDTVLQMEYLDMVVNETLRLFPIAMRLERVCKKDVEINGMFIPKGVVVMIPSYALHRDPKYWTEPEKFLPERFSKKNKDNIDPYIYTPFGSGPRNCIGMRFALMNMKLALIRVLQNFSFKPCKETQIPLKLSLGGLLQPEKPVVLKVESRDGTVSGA
- protocol summary: in vitro
- condition notes: both, pH 7.4, Inhibition at Highest Test Article Concentration, 3A4, Midazolam
readout name: inhibition at 10 µM
Enter the number, and then the unit.

Look up and state reported inhibition at 10 µM for OC1(c2ccc(Cl)cc2)c2ccccc2C2=NCCN21 (stereo not shown) [Compound A, reference compound]
11.7%

---

- study target: CYP2D6 (Homo sapiens, UniProt P10635)
- Sequence (P10635 whole entry): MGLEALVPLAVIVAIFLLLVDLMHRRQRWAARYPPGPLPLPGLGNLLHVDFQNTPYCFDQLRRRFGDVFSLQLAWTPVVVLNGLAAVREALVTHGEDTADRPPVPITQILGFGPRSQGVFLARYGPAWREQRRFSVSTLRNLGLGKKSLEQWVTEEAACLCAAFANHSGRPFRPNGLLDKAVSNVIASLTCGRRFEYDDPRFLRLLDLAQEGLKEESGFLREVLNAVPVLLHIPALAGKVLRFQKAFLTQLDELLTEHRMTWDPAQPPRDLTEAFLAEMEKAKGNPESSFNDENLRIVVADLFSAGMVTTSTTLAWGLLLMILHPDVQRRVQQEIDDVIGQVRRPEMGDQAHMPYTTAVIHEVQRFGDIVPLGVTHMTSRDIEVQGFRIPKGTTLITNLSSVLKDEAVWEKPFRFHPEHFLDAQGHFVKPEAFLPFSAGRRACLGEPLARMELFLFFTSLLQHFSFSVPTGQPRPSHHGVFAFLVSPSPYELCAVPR
- protocol summary: in vitro
- condition notes: both, pH 7.4
readout name: inhibition at 5 µM (%)
Write the value in % as a bare number.

Fill in: inhibition at 5 µM on CYP2D6 (Homo sapiens, UniProt P10635), entry `C=C[C@H]1C[N@@]2CC[C@H]1C[C@@H]2[C@@H](O)c1ccnc2ccc(OC)cc12`
96.2

---

- study target: MATE1 (Homo sapiens)
- Sequence (Q96FL8 1-570): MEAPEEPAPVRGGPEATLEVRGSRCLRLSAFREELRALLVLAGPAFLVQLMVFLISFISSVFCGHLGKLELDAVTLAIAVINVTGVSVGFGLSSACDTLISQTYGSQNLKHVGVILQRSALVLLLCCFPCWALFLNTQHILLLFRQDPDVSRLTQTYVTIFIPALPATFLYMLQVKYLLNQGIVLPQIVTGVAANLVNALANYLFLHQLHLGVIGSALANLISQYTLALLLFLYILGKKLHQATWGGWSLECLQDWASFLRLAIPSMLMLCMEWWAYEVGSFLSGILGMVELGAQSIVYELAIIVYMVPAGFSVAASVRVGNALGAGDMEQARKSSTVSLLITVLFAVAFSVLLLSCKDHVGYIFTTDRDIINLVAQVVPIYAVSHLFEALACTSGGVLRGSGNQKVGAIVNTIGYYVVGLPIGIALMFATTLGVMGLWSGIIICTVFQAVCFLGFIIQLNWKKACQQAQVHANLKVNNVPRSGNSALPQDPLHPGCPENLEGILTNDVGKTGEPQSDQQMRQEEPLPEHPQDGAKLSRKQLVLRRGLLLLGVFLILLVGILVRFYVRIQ
- protocol summary: Uptake transporter inhibition assay, MATE1 (metformin)
readout name: IC50 (µM)
Dear colleague, please return just the value in µM, with no unit written.

// Input: OC1(c2ccc(Cl)cc2)c2ccccc2C2=NCCN21 (stereo not shown) [Compound A, reference compound] . Output its IC50 only.
3.87

---

- study target: MDR1 (Homo sapiens, UniProt P08183)
- Sequence (P08183 whole entry): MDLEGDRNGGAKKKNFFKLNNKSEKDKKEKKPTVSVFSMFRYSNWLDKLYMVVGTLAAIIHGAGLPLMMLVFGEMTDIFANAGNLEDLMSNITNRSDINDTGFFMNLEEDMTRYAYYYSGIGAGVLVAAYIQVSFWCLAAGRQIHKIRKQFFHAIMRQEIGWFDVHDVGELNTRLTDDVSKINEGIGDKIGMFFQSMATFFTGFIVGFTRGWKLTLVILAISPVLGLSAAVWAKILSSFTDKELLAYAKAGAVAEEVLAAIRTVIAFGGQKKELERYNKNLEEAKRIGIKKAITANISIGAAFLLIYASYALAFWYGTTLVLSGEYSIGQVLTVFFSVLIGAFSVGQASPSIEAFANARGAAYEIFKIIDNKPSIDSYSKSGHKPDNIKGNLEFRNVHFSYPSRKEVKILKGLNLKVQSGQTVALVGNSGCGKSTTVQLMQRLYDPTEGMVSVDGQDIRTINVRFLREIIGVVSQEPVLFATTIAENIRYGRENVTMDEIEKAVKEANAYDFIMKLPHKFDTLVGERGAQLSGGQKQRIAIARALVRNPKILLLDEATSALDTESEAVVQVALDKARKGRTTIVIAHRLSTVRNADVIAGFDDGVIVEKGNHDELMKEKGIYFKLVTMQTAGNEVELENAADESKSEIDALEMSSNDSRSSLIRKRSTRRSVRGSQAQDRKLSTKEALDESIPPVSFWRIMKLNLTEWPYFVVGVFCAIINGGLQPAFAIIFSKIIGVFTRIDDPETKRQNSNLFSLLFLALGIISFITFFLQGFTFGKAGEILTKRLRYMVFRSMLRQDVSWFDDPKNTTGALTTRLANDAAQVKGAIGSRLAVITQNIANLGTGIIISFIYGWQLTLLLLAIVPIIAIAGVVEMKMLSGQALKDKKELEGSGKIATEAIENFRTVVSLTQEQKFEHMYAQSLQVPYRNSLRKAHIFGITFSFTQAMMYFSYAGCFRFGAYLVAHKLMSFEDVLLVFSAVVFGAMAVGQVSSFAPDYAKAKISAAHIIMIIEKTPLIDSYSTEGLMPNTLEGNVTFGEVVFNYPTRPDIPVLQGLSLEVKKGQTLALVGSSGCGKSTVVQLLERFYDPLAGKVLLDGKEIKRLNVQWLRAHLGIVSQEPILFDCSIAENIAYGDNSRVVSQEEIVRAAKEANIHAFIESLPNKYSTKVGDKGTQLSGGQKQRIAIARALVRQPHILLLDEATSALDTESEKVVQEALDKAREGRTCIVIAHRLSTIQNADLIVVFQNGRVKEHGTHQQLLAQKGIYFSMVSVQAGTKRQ
- protocol summary: Vesicular transport inhibition assay, MDR1 (N-methyl quinidine)
- condition notes: human, Relative inhibition, 50.00 μM nominal
readout name: inhibition at 50 μM

// Input: OC1(c2ccc(Cl)cc2)c2ccccc2C2=NCCN21 (stereo not shown) [Compound A, reference compound] . Output its inhibition at 50 μM only.
2%

---

- study target: CYP2C8 (Homo sapiens)
- Sequence (P10632 1-490): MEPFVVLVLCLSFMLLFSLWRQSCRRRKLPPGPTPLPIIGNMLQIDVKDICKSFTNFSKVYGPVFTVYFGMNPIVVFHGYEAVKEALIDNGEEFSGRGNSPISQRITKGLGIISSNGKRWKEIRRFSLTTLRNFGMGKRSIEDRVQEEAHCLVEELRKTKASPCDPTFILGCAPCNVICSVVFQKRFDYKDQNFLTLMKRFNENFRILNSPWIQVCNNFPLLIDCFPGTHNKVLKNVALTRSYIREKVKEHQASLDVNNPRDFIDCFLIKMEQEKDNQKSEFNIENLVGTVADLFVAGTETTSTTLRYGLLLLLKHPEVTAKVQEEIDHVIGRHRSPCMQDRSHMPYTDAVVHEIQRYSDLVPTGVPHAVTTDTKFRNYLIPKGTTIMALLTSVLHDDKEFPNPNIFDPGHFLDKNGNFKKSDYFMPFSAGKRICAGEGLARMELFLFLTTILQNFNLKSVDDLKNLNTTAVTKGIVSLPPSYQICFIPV
- protocol summary: in vitro
- condition notes: both, pH 7.4
readout name: inhibition at 10 µM
# output: number + unit

Answer with reported inhibition at 10 µM of OC1(c2ccc(Cl)cc2)c2ccccc2C2=NCCN21 (stereo not shown) [Compound A, reference compound]
48.9%

Source of measurements: patent US20250108038A1
